Biological target: 5-lipoxygenase (Rattus norvegicus)
Construct: endogenous in cells; host or cells: RBL-1 cells (rat basophilic leukemia), intact
Sequence (P12527 1-673): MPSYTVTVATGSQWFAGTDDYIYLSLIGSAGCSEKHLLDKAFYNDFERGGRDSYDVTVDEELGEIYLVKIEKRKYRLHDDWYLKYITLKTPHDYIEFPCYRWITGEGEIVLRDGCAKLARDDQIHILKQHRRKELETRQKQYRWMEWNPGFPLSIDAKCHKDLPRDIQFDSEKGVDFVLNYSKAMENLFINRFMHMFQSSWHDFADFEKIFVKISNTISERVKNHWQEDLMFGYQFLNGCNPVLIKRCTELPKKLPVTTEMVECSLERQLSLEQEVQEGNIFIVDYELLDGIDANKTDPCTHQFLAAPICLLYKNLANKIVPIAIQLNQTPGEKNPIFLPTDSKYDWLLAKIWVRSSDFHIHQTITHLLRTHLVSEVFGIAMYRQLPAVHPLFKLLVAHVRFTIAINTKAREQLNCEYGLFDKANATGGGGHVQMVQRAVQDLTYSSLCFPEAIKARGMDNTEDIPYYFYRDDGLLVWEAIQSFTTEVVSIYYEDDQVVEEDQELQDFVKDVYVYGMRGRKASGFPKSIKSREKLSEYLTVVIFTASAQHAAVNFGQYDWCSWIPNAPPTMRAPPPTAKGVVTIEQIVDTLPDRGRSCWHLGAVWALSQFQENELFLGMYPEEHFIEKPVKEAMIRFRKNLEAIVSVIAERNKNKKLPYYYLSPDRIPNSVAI
Assay: Inhibition of cell-free 5-lipoxygenase from RBL-1-cells
Assay type: biochemical
Conditions: 10,000×g supernatant of RBL cells; polarographic; arachidonic acid 75 μM
pIC50: −log10 of the molar value.
PROPERTY MEASURED: pIC50

COMPOUND STRING	STUDY TARGET	pIC50
NC(=O)N(O)Cc1cccc(Oc2ccc(-n3ccnc3)cc2)c1	5-lipoxygenase (Rattus norvegicus)	5.70

(a) NC(=O)N(O)Cc1ccc(Oc2ccc(-n3ccnc3)cc2)cc1
(b) CC(=O)N(O)Cc1ccc(Oc2ccc(-n3ccnc3)cc2)cc1
Query string: Return label of the item with the larger pIC50. Candidates: a , b . Kindly state the label of the option you pick.
Result string: b
(b: 5.52, a: 5.15)

Data provenance is patent US5356921A.
